Quick reference: pIC50 of the listed items.
target system: human cardiac ion channel proteins hKir3.1/Kir3.4 (Homo sapiens, UniProt P48544+P48549)
Construct: expressed in transfected cells
test: Atomic Absorption Screening (AAS) Rb efflux assay of hKir3.1/Kir3.4 block, carbachol/high K+ stimulated, 10-pt or 7-pt CR
Format: cell-based
measurement setup: 7-pt CR (0.037 to 27 μmol/L), AAS Rb efflux, CHO-K1 cells expressing hKir3.1/Kir3.4; mean of >3 replicates; read-out: IKACh IC50 7-pt CR, AAS
Scale note: pIC50 = -log10(concentration in M).

Guide cases for pIC50, answers given:
CC(C)[C@@H](CN1CCCCC1)N(C)C(=O)c1cccc(C(F)(F)F)c1 = 5.40
CC(C)[C@@H](CN1CC[C@H](O)C1)N(C)C(=O)c1cccc(OC(F)(F)F)c1 = 5.41

Next, consider the following compound.
Prompt: Given the compound CC(C)[C@@H](CN1CCCC1)N(C)C(=O)c1cc(F)cc(F)c1F , what is its reported pIC50?
Completion: 5.41

###

target system: human cardiac ion channel proteins hKir3.1/Kir3.4 (Homo sapiens, UniProt P48544+P48549)
Construct: expressed in transfected cells
Sequence (P48549 1-501): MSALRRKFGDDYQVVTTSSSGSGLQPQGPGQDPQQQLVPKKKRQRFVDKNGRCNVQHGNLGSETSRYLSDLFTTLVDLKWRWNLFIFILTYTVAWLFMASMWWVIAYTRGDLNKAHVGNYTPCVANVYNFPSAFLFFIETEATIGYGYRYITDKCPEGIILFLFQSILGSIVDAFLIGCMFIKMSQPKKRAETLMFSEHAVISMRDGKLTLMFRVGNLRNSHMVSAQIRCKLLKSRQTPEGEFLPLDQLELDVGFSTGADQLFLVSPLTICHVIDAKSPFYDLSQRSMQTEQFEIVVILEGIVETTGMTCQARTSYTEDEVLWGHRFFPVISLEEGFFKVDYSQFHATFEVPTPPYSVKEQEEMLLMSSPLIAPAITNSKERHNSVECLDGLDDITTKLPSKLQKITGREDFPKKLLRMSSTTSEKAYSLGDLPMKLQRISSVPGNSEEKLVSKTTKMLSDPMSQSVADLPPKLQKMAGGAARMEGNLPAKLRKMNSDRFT
Sequence (P48544 1-419): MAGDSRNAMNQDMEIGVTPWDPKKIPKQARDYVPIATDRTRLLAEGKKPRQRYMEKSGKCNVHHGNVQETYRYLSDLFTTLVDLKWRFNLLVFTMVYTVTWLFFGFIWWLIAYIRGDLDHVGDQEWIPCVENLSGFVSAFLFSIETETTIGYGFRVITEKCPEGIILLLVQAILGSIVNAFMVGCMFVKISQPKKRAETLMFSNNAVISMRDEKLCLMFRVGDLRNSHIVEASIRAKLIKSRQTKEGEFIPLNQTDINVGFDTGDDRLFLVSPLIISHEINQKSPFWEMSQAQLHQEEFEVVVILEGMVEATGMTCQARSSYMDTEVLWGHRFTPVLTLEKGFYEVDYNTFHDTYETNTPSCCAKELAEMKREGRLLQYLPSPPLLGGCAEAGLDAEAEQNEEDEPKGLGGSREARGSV
test: Atomic Absorption Screening (AAS) Rb efflux assay of hKir3.1/Kir3.4 block, carbachol/high K+ stimulated, 10-pt or 7-pt CR
Assay type: cell-based
measurement setup: 10-pt CR (0.003 to 67 μmol/L), AAS Rb efflux, CHO-K1 cells expressing hKir3.1/Kir3.4; mean of >4 replicates; read-out: IKACh IC50 10-pt CR, AAS
measurement label: IC50 (µM)
Reply numerically in µM, unit not repeated.

CCCC[C@@H](CN1CC(O)C1)N(C)C(=O)c1ccc(Cl)cc1 = 0.12
CC(C)[C@@H](CN1CC(O)C1)N(C)C(=O)c1ccc(Cl)cc1 = 2.6

Now let's try a different one.
Prompt: Suppose we examine the compound CC[C@H](C)[C@@H](CN1CCCC1)N(C)C(=O)c1ccc(Br)cc1 ; what IC50 value has been reported?
Completion: 1.8

Origin of measurements: patent US8361998B2
